experimentSummary: soluble on expression in E. coli; label from the status in PepcDB or PDB records

- sequence: "MSLIKDIRTYKLCYEGINDERDALAIKGLAEHPMEIVATEIETSDGYVGYGESLAYGCSDAVQVTIEKILKPLLLKEDEELIEYLWDKMYKATLRFGRRGIAIAGISGVDTALWDIMGKKAKKPIYKLLGGSKRKVRAYITGGYYSEKKDLEKLRDEEAYYVKMGFKGIKVKIGAKSMEEDIERLKAIREVVGEDVKIAVDANNVYTFEEALEMGRRLEKLGIWFFEEPIQTDYLDLSARLAEELEVPIAGYETAYTRWEFYEIMRKRAVDIVQTDVMWTGGISEMMKIGNMAKVMGYPLIPHYSAGGISLIGNLHVAAALNSPWIEMHLRKNDLRDKIFKESIEIDNGHLVVPDRPGLGYTIRDGVFEEYKCKSEGHHHHHH"
  soluble on expression in E. coli: "soluble"
- sequence: "MVVLYNECLKNHAVSLGGHALDGCGEFTPKSTTILTDPPSLRCDACGCHRNFHRRSPSDGFSQHRSPPSPLQLQPLAPVPNLLLSLSSGFFGPSDQEVKNKFTVERDVRKTAMIKKHKRTKFTAEQKVKMRGFAERAGWKINGWDEKWVREFCSEVGIERKVLKVWIHNNKYFNNGRSRDTTSSMSLNLKL"
  soluble on expression in E. coli: "soluble"

* * *

experimentSummary: soluble on expression in E. coli; label from the status in PepcDB or PDB records
measurementKind: soluble on expression in E. coli

- sequence: "GSDGTREFLTFEVPLNDSGSAGLGVSVKGNRSKENHADLGIFVKSIINGGAASKDGRLRVNDQLIAVNGESLLGKANQEAMETLRRSMSTEGNKRGMIQLIVARRISRCNE"
  reportedValue: "soluble"
- sequence: "MSLKILVIGPSWVGDMVMSQSLYQRLKQQHPDAQIDVLAPAWCKPILERMPEVNQAIEMTIGHGAFNLLGRRAIGCELRDNRYTHAIVLPNSAKSALIPWFANIPKRTGWKGEFRYGLLNDLRPDKRVFQYMVERYVALAHPKATMLADVSLEHCPRPKLVIDAIVQQAARQRLSLVSSRPVIGLCPGAEFGPAKRWPDHYYAEVARYAIEQGFQVWLFGSAKDHSVTTQIQQALSEEQREYCANLAGETSLIEAVDLLAACHTVVSNDSGLMHVSAAVGCNIVAIYGSSSPKYTPPLTDKLAVVHTEIECRPCFKRVCPLEHLNCLNQLKPAQVIKALDKFIGKDSEGHHHHHH"
  reportedValue: "soluble"

* * *

experimentSummary: soluble on expression in E. coli; label from the status in PepcDB or PDB records
measurementKind: soluble on expression in E. coli

- sequence: "MSHKFSRRAFAVLTAAAISTSAFATTAPSAIAEPVSNVATADDSSVATSENSLDWGFKASWRTYVTGPWTGGTVDATGGATVNEDGTYNFTLGTGSNYDVDTEKGQLNYEGTVAFASDAHGFNITLSNPQITVEGDTATLSAELSDNAAPEETSTTRVDVAEFELTAPEVSETDADITYTWTDASGTFLETLQPEELSRYAGQEADALSFSITVDKASENPSDDVATGSSSSFLSTILNFLQQLASPLLKLFGSLSS"
  measurementKind: "soluble on expression in E. coli"
  reportedValue: "not soluble"
- sequence: "SLSPRRLRLLLVDENPTARAVIGRRLSHRHYDVTVVEDGFAAQKTLIIQPSDIILIDMDLQLLPAIGTMEKIRAAHPAGHACIVMIGGASDTPKMIAALDAGADDHIVKPFDFDMLDARLRRVHARAERVNLLSRQYAELDARIARRAMELGETRETLRQVELDRARLMASVDHLQAEVARLSAREG"
  measurementKind: "soluble on expression in E. coli"
  reportedValue: "soluble"
- sequence: "MGSDKIHHHHHHMDFLDFEKVFSFYSKATKKGFSPFFVPALEKAEEPAGNFFLDRKGNLFSIREDFTKTVLNHRKRYSPDSQIKVWYADFVYRYSGSDLVAEYQLGLEKVPRNSLDDSLEVLEIIVESASEFFEGPVIVEIGHTGVYEDLLKEIPKDLHEKVLNLIDTKNLAEIEFLSHMKKIDLSRVEKIIEDSIYRRSPEHLKTMDLPLSVREDLLSASSFLQEKFPTVSVEIDLTLARTIEEYCGLIFTIYDTSSSRLVAAGGEYTVNGEKGVGGSIFLEGKTC"
  measurementKind: "soluble on expression in E. coli"
  reportedValue: "not soluble"
- sequence: "MSGQHRTRVGGVILAAGRSSRYESGNKLLATIDGKAVVRQVTETACKSSLSDAVAVLGHEKVAVAAALDGLSLSVQHNDEYATGQSASVRHGVEFARSAGWDAALFLLGDMPFVRVETIEELLEAYRTGTATVVVPEHEGRRGNPVLFDNCHFDSLASVSGDRGGRDIIETTEKTAFIEVSDPGVHWDIDTDADLAEFTDRRDSLLEHHHHHH"
  measurementKind: "soluble on expression in E. coli"
  reportedValue: "not soluble"
- sequence: "MIQKINILDSSQSGVKNGADSEAVLAALIEHLELINPSGRLSQNTRSAMLQLREEEWSEFFFWLLNSLECLDYVIINLTPESKKTLMSEHRNNIQVAIDALYSQRRRKSPGDESETLTRRNDAIFGNHVWQTFAQYFPPGLEKPSV"
  measurementKind: "soluble on expression in E. coli"
  reportedValue: "not soluble"
- sequence: "YLASDGKTIILVGKNNLQNDELTFKMSKKGELWFHAKDIPGSHVLIKDNLNPSDEIKTDAAELAAYFSKARLSNLVQVDMIEAKKLNK"
  measurementKind: "soluble on expression in E. coli"
  reportedValue: "not soluble"

Look up soluble on expression in E. coli: "MSLEAIVFDRSEPENVSVKVLDQLLLPYTTKYVPIHTIDDGYSVIKSMQVRGAPAIAIVGSLSVLTEVQLIKHNPTSDVATLYSLVNWESTKTVLNKRLDFLLSSRPTAVNLSNSLVEIKNILKSSSDLKAFDGSLYNYVCELIDEDLANNMKMGDNGAKYLIDVLQKDGFKDEFAVLTICNTGSLATSGYGTALGVIRSLWKDSLAKTDK" soluble

* * *

experimentSummary: soluble on expression in E. coli; label from the status in PepcDB or PDB records
measurementKind: soluble on expression in E. coli

# annotated cases, reported soluble on expression in E. coli shown
- sequence: "MSLKLTRLSLWHIPLTSHETYYMAGGKTCDTTMTTLIRLDTDSGLSGWGEVCPIPHYLPAYADGVAPALTELAPIILGADPLGAEALMERCNAYLLGHDYAKSALDIALWDITARAAGLPLHALLGGRAMADMPLYHSITCVAPDEMARIARDAQAQGMTQFQVKLGADGDWQADVARLSHVREAVGPGPLVYGDWNCGSDSLTASRVGRAVAHLDVMLEQPCRTIQECAAVRDATGLPMKLDETAHDIPSLLDGHRRGCMDAVALKLSKFGGLSATRRARDLCLALGTRMCIEDTWGSDVTTAALLHLAAATPARGLMNTCDLSHYVGPRLAPDGPTRHMGRIAPPEGPGLGITPDMDVLGTPQLILDEGHHHHHH"
  measurementKind: "soluble on expression in E. coli"
  reportedValue: "soluble"
- sequence: "MGSDKIHHHHHHMKQFSGLSRTIQGNHLLDTCAIDILKIGHRPLVLCAKQEYNTTVESFVKVLTCHGLIVKIVYMEEWDQNSVEECGEVGFRHRADHIIGIGNSSVAACTKAVADLLDLPAVLIPTSPFTTLPWVSVENKKRERPLFNESIQLIIADREQLLTQPTSELINGVVNTLLYLAAIKEVKRNHLFSLVDDILIRSFESVLLRGSLQAIEDFEARILSKEVQDVLEVLSTCVTLDLPSDAWDVIQQIESKLSERREDLVDEPLKRNVVLYLLLSYLTQESEEFQARLKWCQQLLLSANSSNLLSLEAVLKEIALEMGEDGSTRC"
  measurementKind: "soluble on expression in E. coli"
  reportedValue: "not soluble"
- sequence: "FGDFNYNTTFTATTNKNKIIQLARDVLNPVTNTLIDLTDIQVGRFRLREGGEIGTVYANEWLKRDGDNYIDYQPGQALTTETTSPYKLGSVNPKWNLGWQHGFSYKGFNLNLLFTARIGGIAISKTQAMLDRYGVSEASADARDAGGVSLGYFKVDPKTYYDAVSNLDAYYTYSATNVRLQEARLTYTFPNKWFKGTVNNLSLSVYGTNLWMIYNKAPYDPELTASTGTFGQGYDYFMLPSQSTYGLSLKFGF"
  measurementKind: "soluble on expression in E. coli"
  reportedValue: "not soluble"
- sequence: "MSLGITDSGLSEKQVEKLVRASRPNNPSPDIWARAIKESLEELGQPVDKEHVSAVCAVISQVSAFSISPKNSRMASILRKKIEAAESNEVLRLLIETRLDQTASNGRTFRENIDSIQSELDFEKWYDEFTSASVTKPILLVLKKDASDLITTAGSMQVSVKFAEEYPKKPRNAGGGSVRDMLYTCKGGVFYGTAYLLDYKHNYDDWKYVFADFNAGHYTSRNAGFQKMLGRLTHRMVDTDGDLLSYENGNATPSVTYVTFINFLKDKGIGFDEKKVMKDFQQEKSYDFEETWSYKTLSELYKKKYGHPIYAVLPDIPLNSPKFVSKNLSTKWFAERVKSRYNHCMRTSIEGHHHHHH"
  measurementKind: "soluble on expression in E. coli"
  reportedValue: "soluble"

Now take the following sequence into account.
Look up soluble on expression in E. coli: "STAREQPIFSTRAHVFQIDPATKRNWIPAGKHALTVSYFYDATRNVYRIISIGGAKAIINSTVTPNMTFTKTSQKFGQWADSRANTVYGLGFASEQHLTQFAEKFQEVKEAARLARE" soluble
